- Protocol Notes: Peptide stability in simulated intestinal fluid (SIF)
- Format: in vitro ADME
- Recorded Conditions: pig, pH 6.8
*1 amine or outer side, *2 acyl side, *3 side chain or, on linkers, in order; H or OH if unused. Where a SMILES comes first, the peptide text is derived from it. Bridges are numbered along the chain shown (N, C = ends). [ ]: non-standard residue; d: D form. Trp(6-F) = N[C@@H](Cc1c[nH]c2cc(F)ccc12)C(=O)O; AEF = NCCOc1ccc(C[C@H](N)C(=O)O)cc1; X1 = O=C(Cc1ccc(CN[*:1])cc1)[*:2]; 3Pal = N[C@@H](Cc1cccnc1)C(=O)O; αMeL = CC(C)C[C@](C)(N)C(=O)O; CH2COCH2 = O=C(C[*:1])C[*:2]; Dab = NCC[C@H](N)C(=O)O
Experimental Readout: remaining at 4 h, 10 μM (%)
One number for each entry, in %.

So for CC(C)C[C@]1(C)NC(=O)[C@H](Cc2c[nH]c3cc(F)ccc23)NC(=O)[C@H](Cc2ccc(OCCN)cc2)NC(=O)[C@@H]2CSCC(=O)CSC[C@H](NC(=O)[C@H](CO)NC(=O)Cc3ccc(cc3)CNC(=O)CC[C@@H](C(=O)N[C@@H](CCN)C(=O)N[C@@H](Cc3cccnc3)C(N)=O)NC1=O)C(=O)N[C@@H](Cc1c[nH]c3ccccc13)C(=O)N[C@@H](CCC(N)=O)C(=O)N2 [Compound 121] ([X1]SCWQC[AEF][Trp(6-F)][αMeL]E[Dab][3Pal]-NH2; linker 3-6 via CH2COCH2; lactam N-10) , the logged remaining at 4 h, 10 μM turned out to be 6
